The entries below come with measured proliferation of naïve CD4+ T cells, mean, at 416.7 ng/mL Ab values attached.
- target: T1, human GITR on naïve CD4+ T cells (human, UniProt Q9Y5U5 26-241)
- T1 sequence: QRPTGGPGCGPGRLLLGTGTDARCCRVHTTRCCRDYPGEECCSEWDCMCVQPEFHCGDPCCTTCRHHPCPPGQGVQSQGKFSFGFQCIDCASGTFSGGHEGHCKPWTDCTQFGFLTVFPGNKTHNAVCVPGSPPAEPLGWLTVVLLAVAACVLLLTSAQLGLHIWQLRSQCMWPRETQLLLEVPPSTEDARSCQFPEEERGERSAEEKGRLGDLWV
- assay remarks: cell-based or functional assay
// response body must contain only the number

Look over these answered cases.
binder	data value
35D8 (antibody, V domains shown, Parental rodent anti-human GITR monoclonal antibody from a hybridoma; kappa VL; also called 35D8.B10) VH: EVQLQESGPSLVKPSQTLSLTCSVTGDSITSGYWNWIRKFPGNKLEYMGYISYSGSTYYNPSLRGRISITRDTSKSQYYLQLSSVTTEDTATYYCSRRHLGSGYGWFAYWGQGTLVTVSA VL: DIVMTQSHKFMSTSVGDRVSITCKASQDVNTAVAWYQQKPGQSPKLLIYWASTRHTGVPDRFTGSGSGTDYALTINSVQAEDLALYYCQQHSYTPPWTFGGGTKLEIRR	89800
49A1 (antibody, V domains shown, Parental rodent anti-human GITR monoclonal antibody from a hybridoma; kappa VL; also called 49A1.B1) VH: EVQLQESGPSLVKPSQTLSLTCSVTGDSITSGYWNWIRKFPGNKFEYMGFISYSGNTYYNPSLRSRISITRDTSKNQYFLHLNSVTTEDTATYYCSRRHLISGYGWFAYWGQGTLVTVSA VL: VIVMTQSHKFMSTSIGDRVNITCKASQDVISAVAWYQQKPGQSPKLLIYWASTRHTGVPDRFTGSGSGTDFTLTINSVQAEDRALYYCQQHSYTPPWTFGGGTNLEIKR	86300

Exercise: For 17F10 (antibody, V domains shown, Parental rodent anti-human GITR monoclonal antibody from a hybridoma; kappa VL; also called 17F10.B1) VH: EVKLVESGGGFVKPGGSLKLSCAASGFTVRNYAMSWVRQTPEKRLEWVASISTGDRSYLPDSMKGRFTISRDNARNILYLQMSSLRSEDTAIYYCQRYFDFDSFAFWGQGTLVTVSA VL: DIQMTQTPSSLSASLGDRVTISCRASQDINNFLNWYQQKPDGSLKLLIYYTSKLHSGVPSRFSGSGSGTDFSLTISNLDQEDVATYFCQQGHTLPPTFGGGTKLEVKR , what is its reported proliferation of naïve CD4+ T cells, mean, at 416.7 ng/mL Ab?
Key: 85700
